# Tested on: IGROV1 ovarian
# Test: NCI tumour cell line growth inhibition, 48 h
Measurement Kind: TGI

Here is how some compounds turned out for TGI.
Compound	TGI
C=C(C)CNC(=S)N(N)c1ccc(OC)cc1	> 100 µM
C=CC(CBr)CCC(Br)C(C)(C)Br (stereo unspecified)	> 10 µM
CN(C)CCCNC(=O)c1ccc2oc3cc4ccccc4c(=O)n3c2c1	> 50 µM
C#Cc1c(C)c(/C=C/C(C)=C/C=C/C(C)=C/C(=O)OC)n(C)c1C	> 100 µM

Input line: Given the compound COc1ccc(N=Nc2c(C)c(C#N)c(=S)n(C3OC(COC(C)=O)C(OC(C)=O)C(OC(C)=O)C3OC(C)=O)c2C)cc1 (stereo unspecified) , what is its reported TGI?
Output line: > 100 µM

Input line: Also, Cc1ccc(/C=N/Nc2nc3ccccc3s2)s1 please.
Output line: > 100 µM

Input line: Also, C/C(=C/c1ccccc1)CN(C(=O)/C=C\Sc1ccccc1)C(C)(C)C please.
Output line: > 100 µM

Input line: Also, CCCCC(C(=O)N/N=C/c1ccc([N+](=O)[O-])o1)C(=O)N/N=C/c1ccc([N+](=O)[O-])o1 please.
Output line: 4.22 µM

Input line: Also, CCN1C(=S)n2cccc2C1CC(=O)c1ccc(Cl)cc1 (stereo unspecified) please.
Output line: > 100 µM

Input line: Also, CCOC(=O)N1CC2(C)C=CC1C(C(=O)OC)C2 (stereo unspecified) please.
Output line: > 100 µM

Input line: Also, O=C(Nc1ccc(Cl)cc1)NS(=O)(=O)c1coc2ccccc2c1=O please.
Output line: > 10 µM

###

# Test system: SF-268 CNS
# Test: NCI tumour cell line growth inhibition, 48 h
Measurement Kind: TGI

Here is how some compounds turned out for TGI.
Compound	TGI
CO/[N+]([O-])=C\C(=O)N/C=C/C(=O)O	> 100 µM
CC1(C)C(C#N)=[N+]([O-])C(C)(C)N1O	> 100 µM

Now examine the next entry.
Input line: Can you look up TGI on SF-268 CNS for C=C[C@]1(O)CCC[C@]2(C)C(=O)CCC12C (stereo partly drawn) ?
Output line: > 100 µM

###

# Tested on: NCI-H522 lung
# Test: NCI tumour cell line growth inhibition, 48 h
Item-by-item account of TGI
Provide the reading as a plain figure in µM.

Here is how some molecules turned out for TGI.
Molecule	Measurement Kind	Reported
COc1cc2c3c(c4ccc(OC)c(OC)c4c2cc1OC)CN1CCC[C@@H]1C3	TGI	0.792
Cc1ccc2nc(N/N=C/c3ccc(C)s3)cc(C)c2c1	TGI	18.9
Cc1nnc2sc(Cl)nn12	TGI	23.9
CS/C(C#N)=C(\C#N)SC	TGI	3.75
CCN(CC)c1ccc(C2CC(c3cc(OC)c(OC)c(OC)c3)=NN2)cc1 (stereo not given)	TGI	5.18

Input line: Given the molecule O=C(NO)c1ccc(OCc2cccc(Cl)c2)cc1 , what is its reported TGI?
Output line: 19.2

Input line: Also, O=C1Oc2ccccc2C(=O)/C1=C/N1C(=O)/C(=C/c2ccc3c(c2)OCO3)SC1=S please.
Output line: 45.2

Input line: Also, CC(C)/C(Cl)=N/OC(=O)Nc1cccc(C(F)(F)F)c1 please.
Output line: 0.951

###

# Test system: HS 578T breast
# Test: NCI tumour cell line growth inhibition, 48 h
Item-by-item account of TGI

Here is how some compounds turned out for TGI.
Compound	Reported
CCCCCN1CCN(c2ncccn2)CC1	> 100 µM
O=C1c2sc(-c3ccc(F)cc3)cc2-n2cccc21	62.7 µM
Cc1cccc(O)c1-c1nnc(CCCCCCCCc2nnc(-c3c(C)cccc3O)n2N)n1N	> 100 µM

Input line: Given the compound O=C(Nc1cccc(NC(=O)C(=O)C2CCC3=C(Sc4ccccc4N3)C2=O)n1)C(=O)C1CCC2=C(Sc3ccccc3N2)C1=O (stereo not given) , what is its reported TGI?
Output line: > 100 µM

Input line: Also, COc1cc(C2SCC(=O)N2Cc2ccccc2)cc(OC)c1OC (stereo not given) please.
Output line: > 100 µM

Input line: Also, C[C@H]1CC[C@H]([C@@H](C)[C@H]2[C@@H](O)C[C@H]3[C@@H]4CC[C@H]5C[C@@H](O)CC[C@]5(C)[C@H]4CC[C@]23C)NC1 please.
Output line: 57.7 µM

Input line: Also, CNC1C(O)C(NC)C2OC3(O)C(=O)CC(C)OC3OC2C1O (stereo not given) please.
Output line: > 100 µM

Input line: Also, CCSC1=N/C(=C\c2ccco2)C(NN)=N1 please.
Output line: > 50 µM

Input line: Also, CCC(=O)C1(c2ccccc2)CCN(C)CC1 please.
Output line: > 100 µM

Input line: Also, Cc1cc(C(=O)Nc2nc3cccc(Cl)c3n2[C@@H]2CCCCN(C(=O)/C=C/CN(C)C)C2)ccn1 please.
Output line: 37.3 µM

Values were extracted from PubChem BioAssay (NCI).
